# targetSystem: T1, AFP158/HLA-A*02:01 complex (human)
# T1 construct: biotinylated on the BSP by BirA for ELISA and panning; also called biotinylated AFP158/HLA-A*02:01 complex; Bio-AFP158
# protocolText: SPR, crude scFv captured;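 also: Peptide–MHC complex flowed at several concentrations over sensorchip-captured scFv, Kd derived from on- and off-rates obtained from the association and dissociation curves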
endpointName: pKd
Value format note: pKd is -log10 of concentration (mol/L); just state the number.

binder	pKd
AS170036 VL1VH1 HP58R (scFv) scFv: QSALTQPRSVSGSPGQSVTISCAGTSSDVGSENYVSWYQQHPGKAPKLMIYQVNKRASGVPDRFSGSKSGNTASLTISGLQAEDEADYYCASYRSSDHNIVFGGGTKLTVLGGGGSGGGGSGGGGSEVQLVESGGGLVQPGGSLRLSCAASGFTFSSYAMSWVRQAPGKGLEWVSTINSGTGSRYYADSVKGRFTISRDNSKNTLYLQMNSLRAEDTAVYYCAKNFFDGSWFLGPPAMDYWGQGTLVTVSSHHHHHH	5.92

Q) Which measured pKd value corresponds to AS170036 VL1VH1 HL107S (scFv) scFv: QSALTQPRSVSGSPGQSVTISCAGTSSDVGSENYVSWYQQHPGKAPKLMIYQVNKRASGVPDRFSGSKSGNTASLTISGLQAEDEADYYCASYRSSDHNIVFGGGTKLTVLGGGGSGGGGSGGGGSEVQLVESGGGLVQPGGSLRLSCAASGFTFSSYAMSWVRQAPGKGLEWVSTINSGTGSPYYADSVKGRFTISRDNSKNTLYLQMNSLRAEDTAVYYCAKNFFDGSWFSGPPAMDYWGQGTLVTVSSHHHHHH ?
A) 5.39

Q) Which measured pKd value corresponds to AS170036 VL1VH1 HP58A (scFv) scFv: QSALTQPRSVSGSPGQSVTISCAGTSSDVGSENYVSWYQQHPGKAPKLMIYQVNKRASGVPDRFSGSKSGNTASLTISGLQAEDEADYYCASYRSSDHNIVFGGGTKLTVLGGGGSGGGGSGGGGSEVQLVESGGGLVQPGGSLRLSCAASGFTFSSYAMSWVRQAPGKGLEWVSTINSGTGSAYYADSVKGRFTISRDNSKNTLYLQMNSLRAEDTAVYYCAKNFFDGSWFLGPPAMDYWGQGTLVTVSSHHHHHH ?
A) 6.42

Q) Which measured pKd value corresponds to AS170036 VL1VH1 HP110I (scFv) scFv: QSALTQPRSVSGSPGQSVTISCAGTSSDVGSENYVSWYQQHPGKAPKLMIYQVNKRASGVPDRFSGSKSGNTASLTISGLQAEDEADYYCASYRSSDHNIVFGGGTKLTVLGGGGSGGGGSGGGGSEVQLVESGGGLVQPGGSLRLSCAASGFTFSSYAMSWVRQAPGKGLEWVSTINSGTGSPYYADSVKGRFTISRDNSKNTLYLQMNSLRAEDTAVYYCAKNFFDGSWFLGPIAMDYWGQGTLVTVSSHHHHHH ?
A) 5.82

Q) Which measured pKd value corresponds to AS170036 VL1VH1 HD102I (scFv) scFv: QSALTQPRSVSGSPGQSVTISCAGTSSDVGSENYVSWYQQHPGKAPKLMIYQVNKRASGVPDRFSGSKSGNTASLTISGLQAEDEADYYCASYRSSDHNIVFGGGTKLTVLGGGGSGGGGSGGGGSEVQLVESGGGLVQPGGSLRLSCAASGFTFSSYAMSWVRQAPGKGLEWVSTINSGTGSPYYADSVKGRFTISRDNSKNTLYLQMNSLRAEDTAVYYCAKNFFIGSWFLGPPAMDYWGQGTLVTVSSHHHHHH ?
A) 5.72

Q) Which measured pKd value corresponds to AS170036 VL1VH1 HP58E (scFv) scFv: QSALTQPRSVSGSPGQSVTISCAGTSSDVGSENYVSWYQQHPGKAPKLMIYQVNKRASGVPDRFSGSKSGNTASLTISGLQAEDEADYYCASYRSSDHNIVFGGGTKLTVLGGGGSGGGGSGGGGSEVQLVESGGGLVQPGGSLRLSCAASGFTFSSYAMSWVRQAPGKGLEWVSTINSGTGSEYYADSVKGRFTISRDNSKNTLYLQMNSLRAEDTAVYYCAKNFFDGSWFLGPPAMDYWGQGTLVTVSSHHHHHH ?
A) 6.22

Q) Which measured pKd value corresponds to AS170036 VL1VH1 HD102V (scFv) scFv: QSALTQPRSVSGSPGQSVTISCAGTSSDVGSENYVSWYQQHPGKAPKLMIYQVNKRASGVPDRFSGSKSGNTASLTISGLQAEDEADYYCASYRSSDHNIVFGGGTKLTVLGGGGSGGGGSGGGGSEVQLVESGGGLVQPGGSLRLSCAASGFTFSSYAMSWVRQAPGKGLEWVSTINSGTGSPYYADSVKGRFTISRDNSKNTLYLQMNSLRAEDTAVYYCAKNFFVGSWFLGPPAMDYWGQGTLVTVSSHHHHHH ?
A) 5.74

Q) Which measured pKd value corresponds to AS170036 VL1VH1 HP58T (scFv) scFv: QSALTQPRSVSGSPGQSVTISCAGTSSDVGSENYVSWYQQHPGKAPKLMIYQVNKRASGVPDRFSGSKSGNTASLTISGLQAEDEADYYCASYRSSDHNIVFGGGTKLTVLGGGGSGGGGSGGGGSEVQLVESGGGLVQPGGSLRLSCAASGFTFSSYAMSWVRQAPGKGLEWVSTINSGTGSTYYADSVKGRFTISRDNSKNTLYLQMNSLRAEDTAVYYCAKNFFDGSWFLGPPAMDYWGQGTLVTVSSHHHHHH ?
A) 6.12

Q) Which measured pKd value corresponds to AS170036 VL1VH1 HF101H (scFv) scFv: QSALTQPRSVSGSPGQSVTISCAGTSSDVGSENYVSWYQQHPGKAPKLMIYQVNKRASGVPDRFSGSKSGNTASLTISGLQAEDEADYYCASYRSSDHNIVFGGGTKLTVLGGGGSGGGGSGGGGSEVQLVESGGGLVQPGGSLRLSCAASGFTFSSYAMSWVRQAPGKGLEWVSTINSGTGSPYYADSVKGRFTISRDNSKNTLYLQMNSLRAEDTAVYYCAKNFHDGSWFLGPPAMDYWGQGTLVTVSSHHHHHH ?
A) 6.08
